experiment: Rat hepatocyte Clint; assay type: in vitro ADME; settings: rat hepatocytes, intrinsic clearance; read-out: RH CLint
parameter measured: hepatocyte CLint (µL/min/1e6 cells)

Cc1c(-c2cnc(N3CCCNCC3)nc2)ccc2c(Nc3cnccn3)ccnc12 [9e] | 5.3

a. CCN1CCCN(c2ncc(-c3cc4nccc(Nc5cnccn5)c4cc3C)cn2)CC1 [8c]
b. CN1C[C@H]2C[C@@H]1CN2c1ncc(-c2ccc3c(Nc4cnccn4)ccnc3c2)cn1 [4a]
Which entry has a larger number for hepatocyte CLint, a or b ? # answer = label of selected item
a
(a: 32 µL/min/1e6 cells, b: 17 µL/min/1e6 cells)

1. CN1CCN(c2ncc(-c3ccc4c(NCCN5CCCC5)ccnc4c3)cn2)CC1 [S1b]
2. CN1CCN(c2ncc(-c3ccc4c(N[C@@H]5CCCC[C@H]5O)ccnc4c3)cn2)CC1 [S1c]
3. CN1CCCN(c2ncc(-c3ccc4c(Nc5ccncn5)ccnc4c3)cn2)CC1 [5c]
Order field: hepatocyte CLint | Direction: descending (largest first) Answer by listing the labels in the requested order.
3, 2, 1
(3: 82 µL/min/1e6 cells, 2: 8.1 µL/min/1e6 cells, 1: 1 µL/min/1e6 cells)

* * *

tested on: adult S. mansoni; experiment: Phenotypic screen of adult S. mansoni worms, severity scores and descriptors; assay type: cell-based, Schistosoma mansoni; conditions: adult S. mansoni, 10 μM, 24 h; scale 0 (no activity) to 4 (maximal activity)
Recorded Severity Scores (10 μM) 24 h values for a group of compounds are listed next.
The response must contain the number and no unit.

Below, 4 compounds whose answers are already recorded.
C[C@@H]1CNCCN1C(=O)c1ccc(-c2cnc(N3CCCN(C)CC3)nc2)cc1N [S4c] | 0
CN1CCCN(c2ccc(Nc3ccc4c(Nc5cnccn5)ccnc4c3)cc2)CC1 [S3k] | 2
CCN1CCCN(c2ncc(-c3cc4nccc(Nc5cnccn5)c4cc3C)cn2)CC1 [8c] | 4
Cc1ccc2[nH]c3c4ccc(-c5cnc(N6CCCN(C)CC6)nc5)cc4ncc3c2c1 [6c] | 4

Tell me the measured Severity Scores (10 μM) 24 h of CN(CCNc1ncc(-c2ccc3c(Nc4cnccn4)ccnc3c2)cn1)C(=O)OC(C)(C)C [3e] , please.
0

Please report the recorded Severity Scores (10 μM) 24 h for Cc1cc2c(Nc3cnccn3)ccnc2cc1-c1cnc(N2CCCN(C)CC2)nc1 [8b] .
4

Look up Severity Scores (10 μM) 24 h: c1cc(-c2ccc3c(c2)ncc2c4ccccc4[nH]c32)cc(N2CCOCC2)c1 [6a]
0

I'd like to know its Severity Scores (10 μM) 24 h. The compound in question is CN1CCN(c2ncc(-c3ccc4c(NC5CCOCC5)ccnc4c3)cn2)CC1 [S1d]
0

Dear colleague, I am looking for the recorded Severity Scores (10 μM) 24 h of the following compound: c1cnc(Nc2ccnc3cc(-c4cnc(N5CCCNCC5)nc4)ccc23)cn1 [4g]
0

* * *

assay: Log D7.4 shake-flask octanol-water; format: physicochemical; settings: pH 7.4
parameter measured: logD

CCN1CCCN(c2ncc(-c3ccc4c(Nc5cnccn5)ccnc4c3)cn2)CC1 [4e] | 2.7

P. CN1CCN(c2ncc(-c3ccc4c(NCC5CCOCC5)ccnc4c3)cn2)CC1 [S1e]
Q. CN(CCNc1ncc(-c2ccc3c(Nc4cnccn4)ccnc3c2)cn1)C(=O)OC(C)(C)C [3e]
Of P and Q , whose reported logD is numerically smaller? Label of pick, please.
P
